EXPERIMENT DESCRIPTION: yeast display, Sf9 membrane polyspecificity reagent, FACS + sequencing; frameworks hold sequencing errors
QUANTITY KIND: polyreactivity (PSR sort gate)

For "QVQIVESGGGLVQAGGSLRLSCAASGSTFYGYAMGWYRQAPGKERELVAVINYRGDRTYFADSVKGRFTISRDNAKNTVYLQMNSLKPEDTAVYYCAARYRVYYLAGYEYWGQGTQVTVSS" , what is its reported polyreactivity (PSR sort gate)?
high polyreactivity

For "QHQLVESGGGLFQAGGSLRLSCAPSGSIIVWNAMGWYRQAPGKERELVASMTSGASTYYADSGKGRVTISRDNAKNTVYLQMNSLKPEDTAVYYCAAYYGYTDGWYLYSGYNYWGQGTQVTVSS" , what is its reported polyreactivity (PSR sort gate)?
low polyreactivity

For "QVQLVESGGGLDQAGGSLRLSCAASGFTFGSNAMGWYRQAPGKERELVASITTRGGSTYYADSVKGRFTISRDNANNTVYLQMNSLKPEDTAVYYCAARARYPNWTYYYWGQGTQVTVSS" , what is its reported polyreactivity (PSR sort gate)?
high polyreactivity

For "QVQLVESGGGLVQAGGSLRLSCAASGSILIWNTMGWYRQAPGKERELVAAISSGASTYYADSVKGRFTISRDNAKNTVYLQMNSLKPEDTAVYYFYVDLPRVLTDDSWGQGTQVTVSS" , what is its reported polyreactivity (PSR sort gate)?
low polyreactivity

* * *

EXPERIMENT DESCRIPTION: yeast display, Sf9 membrane polyspecificity reagent, FACS + sequencing; frameworks hold sequencing errors
QUANTITY KIND: polyreactivity (PSR sort gate)

Take a look at these entries with their results.
For "QVQLVESGGGLVQAGGSLRLSCAASGRNIYTNAMGWYRQAPGKERELVAAINRSGGITYYADSVKGRFTISRDNAKNTVDLQMNSLKPEDTAVYYCAKDYSWASYNHDYWGQGTQVTVSS" , what is its reported polyreactivity (PSR sort gate)?
low polyreactivity

For "QVQLVESGGGLVQAGGSLRLSCAASGSTFRRYTMGWYRQAPGKERELLAAISSGGSTYYADSVKGRFTISRDNAKNTVYLQMNSLNPEDTAVYYCAAKNYPLTRYWRYDYSEYYYWGQATQVTVSS" , what is its reported polyreactivity (PSR sort gate)?
high polyreactivity

For "QVQLVESGGVLVQAGGSLRLSCADSGRTFYTNAMGWYRQAPGKERELVAAITGSDGNTYYADSVKGRFTISRENAKNTVYLQMISLKAEDTAVYYGFDYWVQGTQVTVSS" , what is its reported polyreactivity (PSR sort gate)?
low polyreactivity

For "QVQLVESGGGLVQAGGSLRLSCAASGRIFEHYAMGWYRQAPGKERELVAAITSSGDSTYYADSVKGRFTISRDNAKNTVYLQMNSLKPEDTAVYYCNAVAYISYLWGYYLSTPYDYWGQGTQVTVSS" , what is its reported polyreactivity (PSR sort gate)?
high polyreactivity

For "QVQLVESGGGLVQAGGSLRLSSAASGSIFAWYGMGWYRQAPGKERELVAAISTAGSTNYADSVKGRFTISRDNAKNTVYLQMNSLKPEDTAVYYCAKKSSWYYPERFDYWGQGTQVTVSS" , what is its reported polyreactivity (PSR sort gate)?
low polyreactivity

For "QVQLVESGGGLVHAGGSLRLSCAASGSTFNTNTMGWYRQAPGKERELVAAITKSGGSTYYADSVKGRFTISRDNAKNTVYLQMNSLKPEDTAVYYCNAYPDDSYKYLYWSDGDYWGQGTQVTVSS" , what is its reported polyreactivity (PSR sort gate)?
low polyreactivity

---
For "QVQLVESGGGLVQAGGSLRLSCAASGRTFPGYAMGWYRQAPGKETELVATISSADSTNYADSVKGRFTISRDNAKNTVYLQMNSLKPEDTAVYYCAERYGRNGAAAQYTGWYRYDYWGQGTQVTVSS" , what is its reported polyreactivity (PSR sort gate)?
low polyreactivity

For "QVQLVETGGGLVQAGGSLRLSCAPSGSIFRYNAMGWYRQAPGKEREFVAAISQSGSRTYYADSVKGRFTISRDNAKNTVYLQMNSLKPEDTAVYYCAKKYYGVKFYWGQGTQVTVSS" , what is its reported polyreactivity (PSR sort gate)?
low polyreactivity

For "QVQLVESGGVLVQAGGSLRLTCAASGSILYLNAMGWYRQAPGKERELVAAITWSGGSTSYADSVKGRFTISRDNAKYTVSLQMNSLKPEDTAVYYCASGRRGYGGVYYAGGYWGQGTQVTVSS" , what is its reported polyreactivity (PSR sort gate)?
low polyreactivity

For "QVQLVESGGGLVQAGGSLRLSCPASGRTFVVYAMGWYRQAPGKEREFVAAITTRGNSTYYADSVKGRFTISRDNAKNTVYLQMNSLKPEDTAVYYCAAVLRLSTLTTDFGYWGQGTQVTVSS" , what is its reported polyreactivity (PSR sort gate)?
high polyreactivity

For "QVQLVESGGGLVQAGGSLRLSCAASGITFEGYAMGWYRQAPGKERELVAAITWSGGRTYYADSVKGRFTISRDNAKNTVYLQMNSLKPEDTAVYYCAADVSDWSNQYFDSYLRMDYWGQGTQVTVSS" , what is its reported polyreactivity (PSR sort gate)?
low polyreactivity

For "QVQLVESGGGLVQAGGSLRLSCAASGRIFPGYVMGWYRQAHGKERELVAAITRGGSTYYADSVKGRFTISRDNAKNTVYLQMNSLKPEDTAVYYCAAKHSHIHYNYWGQGTQVTVSS" , what is its reported polyreactivity (PSR sort gate)?
low polyreactivity

For "QVQLVESGGGLVQAGGSLRLSCAASGRIFSRYAMGWYRQAPGKERELVATITRRGGSTSYADSVKGRFTISRDNAKNTVYLQMNSLKPEDTAVYYCAAQSFYGIYYGQQDYDYWGQGTQVTVSS" , what is its reported polyreactivity (PSR sort gate)?
high polyreactivity
